// reported Cell Viability per item
Tested on: Colon cancer organoid
test method notes: Optimized Dual-Glo assay to identify co-culture induced drug vulnerabilities using donated chemical probes and chemogenomics kinase set in O06 CRC organoid and F06 CAF mono and co-culture. […] Cell viability is reported both mono and co-culture models.
Assay type: functional, Homo sapiens
Parameters: dose or concentration left out as unconfirmed
condition context: Culture type Co-Culture; Transduced with Renilla-dsRed lentivirus
endpoint name: Cell Viability (%)

- compound: "Nc1nc(NCc2ccccc2)nc(-c2ccccc2CO)n1 [Ogerin]"
  unit string: "%"
  value observed: 107.856
- compound: "Cn1cc(-c2ccc3occ(-c4cccc(-c5ccncc5)c4)c3n2)cn1"
  unit string: "%"
  value observed: 94.5664
- compound: "Cc1nnc2c3ccccc3c(N[C@@H](C)[C@H](c3ccccc3)N(C)C)nn12"
  unit string: "%"
  value observed: 115.114
- compound: "CNc1nc(-c2ccc3c(N)n[nH]c3c2)cc(N2C[C@@H](C(=O)NC3CCCCC3)CC[C@H]2C)n1"
  unit string: "%"
  value observed: 53.4401
- compound: "CC[C@H](CC(=O)O)n1c(=O)c2ncccc2n(Cc2cn(C)c3cc(C)cc(C)c23)c1=O [BI-1942]"
  unit string: "%"
  value observed: 136.619
- compound: "COc1nc2ccc([C@@](O)(c3ccccc3)C3CCN(C(C)=O)CC3)cc2c(Cl)c1Cc1ccc(-n2cccn2)cc1 [JNJ-54119936]"
  unit string: "%"
  value observed: 75.6952
- compound: "CNC(=O)Nc1ccc(-c2nc(N3CC4CCC(C3)O4)c3cnn(C4CCC5(CC4)OCCO5)c3n2)cc1"
  unit string: "%"
  value observed: 48.532
- compound: "CCOc1cc(N2CCC(O)CC2)ccc1Nc1ncc2c(n1)N(C1CCCC1)CCC(=O)N2C"
  unit string: "%"
  value observed: 151.464
- compound: "COc1ccccc1-c1cc(Nc2cccc(CS(N)(=O)=O)c2)ncn1"
  unit string: "%"
  value observed: 95.8866
- compound: "NS(=O)(=O)c1cc(NC(=O)C2(c3ccccc3Cl)CC2)ccc1Oc1cccc(Cl)c1 [BAY-207]"
  unit string: "%"
  value observed: 155.512
- compound: "c1ccc2oc(-c3csc(C4CCN(Cc5nc6ncccc6[nH]5)CC4)n3)cc2c1"
  unit string: "%"
  value observed: 124.83
- compound: "COc1cc(N(C)c2ccnc3ccc(C(F)(F)F)cc23)cc(OC)c1OC"
  unit string: "%"
  value observed: 161.036
- compound: "CCOCCn1cc(C(=O)Nc2ccc(-n3nc(-c4cccnc4)cc3C(F)(F)F)cn2)ccc1=O [BI 1935]"
  unit string: "%"
  value observed: 113.636
- compound: "CN(C)[C@H]1CCN(c2cc(-c3ccccc3)nc3ccnn23)C1 [(S)-ZINC-3573]"
  unit string: "%"
  value observed: 121.05
- compound: "COc1ccc(Cn2ccc3ccc(C(=O)NO)cc32)cc1"
  unit string: "%"
  value observed: 129.424
- compound: "FC(F)c1nc2ccccc2n1-c1nc(N2CCOCC2)nc(N2CCOCC2)n1 [ZSTK-474]"
  unit string: "%"
  value observed: 101.088
- compound: "Nc1ncnc2c1ccn2[C@@H]1O[C@H]([C@H](O)c2ccccc2)[C@@H](O)[C@H]1O"
  unit string: "%"
  value observed: 108.338
- compound: "O=C(NOC[C@H](O)CO)c1ccc(F)c(F)c1Nc1ccc(I)cc1F [MIRDAMETINIB]"
  unit string: "%"
  value observed: 49.9042
- compound: "CN(C)C(=O)c1cc2cnc(Nc3ccc(N4CCNCC4)cn3)nc2n1C1CCCC1 [RIBOCICLIB]"
  unit string: "%"
  value observed: 126.231
